Measured values drawn from patent US9776972B2 for this set.

Catalogue of EC30 values
# Tested on: mono-methyl arginine in RKO cells
# PROCEDURE_SUMMARY: RKO Methylation Assay, In Cell Western (ICW) for mono-methyl arginine and DNA content
# Type: cell-based
# CONDITION_PARAMETERS: Homo sapiens, RKO, 72 h, RKO cells, 72 hours, mono-methyl arginine, percent activation; single experiment or average of multiple experiments; read-out: EC30 (In Cell Western data, Numerical)

CCN(C)C(=O)c1ccc(-c2n[nH]cc2CN(C)CCN)cc1 : > 20 µM
COc1ccc(-c2n[nH]cc2CN(C)CCN)c(C(F)(F)F)c1 : > 20 µM

Now consider the entry below.
# input Sample CNCCN(C)Cc1n[nH]cc1-c1cc(CC(C)C)cc(CC(C)C)c1 — what was its EC30?
# output > 20 µM
